tested on: A549 NSCLC; assay: NCI tumour cell line growth inhibition, 48 h; in the data active = GI50 below about 0.43 µM; inactive = the rest
Outcome codes: Yes (active), No (inactive)

COMPOUND	CATEGORY_LABEL
Oc1ccc(Cl)cc1-c1cc(-c2ccc(Cl)cc2)n[nH]1	No
Nc1cc2ccccc2c(O)c1O	No
CC(C)CNC(=O)c1ccc(NC(=O)N(CC(C)C)C(=O)c2ccc(N)c(OCCCN)c2)c(OCCCN=C(N)N)c1	No
CC(C)CC(=O)[O-].CC(C)CC(=O)[O-].N.N.N.N.[Co+3].[O-][Cl+3]([O-])([O-])O.[O-][Cl+3]([O-])([O-])[O-]	No
Cc1n(Cc2ccc3ccccc3c2)c2ccccc2[n+]1Cc1ccc2ccccc2c1	No
O=C(Nc1ccc(-n2ccc3c(NC(=O)c4ccccc4)ncnc32)cc1)c1ccc(Cl)c(C(F)(F)F)c1	No
COc1ccc2c(c1)C(=O)c1c-2c(=O)n(CCCCCCC(=O)NO)c2ccccc12	Yes
c1ccc(-c2cccc(-c3ccccn3)n2)nc1	Yes
NC(=O)c1cc(Cl)ccc1NC(=O)COc1ccccc1	No
Cc1ccc(/C(=C/C=C(/C#N)C(N)=O)Sc2ncnn2C)cc1	No
CN(C)c1ccc(N=Nc2ccc(Br)cn2)c(O)c1	No
CC(C)CC(=O)[O-].N.N.N.N.N.[Co+3].[O-][Cl+3]([O-])([O-])[O-]	No
CCC(C)C1=NC(C(=O)N/C=C\c2c[nH]c3cc(Br)c(Br)cc23)(C(C)C)NC1=O (stereo not drawn)	No

====

List of TGI values.
test system: OVCAR-5 ovarian; test: NCI tumour cell line growth inhibition, 48 h
READOUT_TYPE: TGI

COMPOUND	READOUT_TYPE	OBSERVED
COc1ccc(C=C2C(=O)NC(=S)NC2=O)c2ccccc12	TGI	> 100 µM
CCOC(=O)/C=C(\C)c1ccc(Cl)cc1	TGI	> 100 µM
CCCCCCCCCCCCCCCCCCNc1nc(=O)n(C2CC(O)C(COP(=O)(O)OCC(COP(=O)(O)OC3C(CO)OC(n4ccc(N)nc4=O)C3O)OCCCCCCCCCCCCCCCCCC)O2)cc1F (centres undefined)	TGI	> 100 µM
CS(=O)(=O)OCCn1c2c(c3c(O)cccc31)C(=O)c1ccccc1-2	TGI	> 100 µM
CNC[C@@H](NC(=O)c1ccc(-c2nc([C@H]3CC[C@H](O)[C@@H](F)C3)cnc2N)cc1F)c1cc(F)cc(Br)c1	TGI	40.2 µM
COc1ccc(CNC(=O)[C@H](Cc2ccc(O)cn2)NC(C)=O)cc1OC	TGI	> 100 µM
Cc1cnc(NC2CCOCC2)nc1-n1cnc(C(=O)N[C@H](CN)c2cc(F)cc(Cl)c2)c1	TGI	> 82.8 µM
O=c1ccc2[n+]([O-])c3ccc(O)cc3oc-2c1	TGI	56.6 µM
C[C@@]1(O)C2C3CC4C5C3C1[C@](O)(C42)[C@H]5Br (some centres undefined)	TGI	> 100 µM

====

tested on: HCC-2998 colon; assay: NCI tumour cell line growth inhibition, 48 h
READOUT_TYPE: TGI

COMPOUND	READOUT_TYPE	OBSERVED
Cc1cc(-c2ccc(C3C(C#N)=C(N)Oc4c3c(=O)oc3ccccc43)cc2)cnc1F (configuration not stated)	TGI	> 100 µM
COc1ccc2cc(C(=O)NCCCNC(=O)c3ccc4c(OC)c(OC)ccc4c3)ccc2c1OC	TGI	> 100 µM
Cc1cc(NS(=O)(=O)c2ccc(NC(=O)c3ccc(Cl)c4c(Nc5ccc(S(N)(=O)=O)cc5)c5ccccc5nc34)cc2)no1	TGI	33.2 µM
COc1ccc2nc3n(c2c1)C(c1c(F)cccc1Cl)SC3 (configuration not stated)	TGI	> 100 µM
COC(=O)CCC(C)[C@H]1CCC2C3C(C[C@H](OC(C)=O)[C@@]21C)[C@@]1(C)CCC2(C[C@H]1C[C@H]3OC(C)=O)OOC1(CCC(C(C)(C)C)CC1)OO2 (some centres not stated)	TGI	> 100 µM
O=C(O)c1ccccc1/C=C1\Cc2ccccc2C1=O	TGI	> 100 µM
Nc1cc2ccccc2c(O)c1O	TGI	27.1 µM
COc1cccc(C=O)c1[O-].COc1cccc(C=O)c1[O-].[Cu+2]	TGI	29 µM
O=c1[nH]c2ccccc2c(O)c1/C=N/C(=S)NCCc1ccccc1	TGI	> 100 µM
Cc1cccc(-c2cc(=O)c3cc(C)c(C)c(C(=O)O)c3o2)c1	TGI	> 100 µM
N=C(N)CCNC(=O)C1CCC(N)=N1 (configuration not stated)	TGI	> 36.2 µM
COC(=O)CCC1=C(C)C(C)=N/C1=C\c1[nH]c(-c2ccc[nH]2)cc1OC	TGI	14.6 µM

====

tested on: COLO 205 colon; assay: NCI tumour cell line growth inhibition, 48 h

COMPOUND	BOUND_SIGN	TGI (nM)
N#CCCN(CCC#N)c1ccc(/C=C2\N=C(c3cc([N+](=O)[O-])ccc3Cl)N(S(=O)(=O)c3ccccc3)C2=O)cc1	>	100000
C1CCC(C(CC2CCCCN2)C2CCCCC2)CC1 (centres undefined)	=	2790
N#Cc1c(N)c2c(c(-c3ccccc3)c1-c1ccccc1)C(=O)N(NC(=S)Nc1ccccc1)C2=O	>	100000
C=C1C(=O)O[C@H]2[C@H]1CC/C(COC(=O)NCc1c[nH]c3ccc(Br)cc13)=C\CC[C@@]1(C)O[C@@H]21	=	2320
COc1ccc(CCCNC(=O)Cc2ccccc2CO)cc1OC	>	100000
O=[N+]([O-])c1ccc2c3c1[C@H]1O[C@H]1c1cccc(c1-3)[C@@H]1O[C@H]21	=	3690
CC1(C)C2CCC(=O)C1C(OCc1ccccc1)C2 (centres undefined)	>	100000
Cc1c2cccc(Sc3ccccc3)c2c2c3c(cccc13)[S+](c1ccccc1)C2 (centres undefined)	=	2460
CN1C(=O)C23CC4(C56CC78SSC(CO)(C(=O)N7C5Nc5ccccc56)N(C)C8=O)c5ccccc5NC4N2C(=O)C1(CO)SS3 (centres undefined)	=	76

====

List of TGI values.
test system: ACHN renal; assay: NCI tumour cell line growth inhibition, 48 h
Where a SMILES comes first, the peptide text is derived from it. [ ]: non-standard residue; d: D form. The star is where a group is joined. ξ: configuration not given here. Phe(2-OMe) = COc1ccccc1C[CH](N)C(=O)O; ξHyp = O=C(O)C1CC(O)CN1; Cbz = O=C(OCc1ccccc1)*; OBn = c1ccc(CO*)cc1
READOUT_TYPE: TGI

COMPOUND	OBSERVED
CCN1C2=C(SC(=S)C1=C1SC(C(=O)OC)=C(C(=O)OC)S1)SC(=Nc1ccc(OC)cc1)C2=O	3.58 µM
Cc1c(Cl)ccc2c1NC(=O)C2(O)CC(=O)c1cccc2ccccc12 (stereo not given)	> 100 µM
NC(CCCNCc1ccccc1)C(=O)O (stereo not given)	> 100 µM
COC(=O)C(Cc1ccccc1OC)NC(=O)C(CC(=O)OCc1ccccc1)NC(=O)OCc1ccccc1 (stereo not given) (Cbz-Asp(OBn)-[Phe(2-OMe)]-OMe; configuration not given here)	> 100 µM
COC(=O)CNC(=O)CCSc1nnc(COc2ccc(Cl)cc2)n1-c1ccccc1	> 100 µM
NCC(O)CSP(=O)(O)O (stereo not given)	> 100 µM
NC(N)=NS(=O)(=O)c1ccc(NC(=O)c2cccc3cc4ccccc4nc23)cc1	> 100 µM
C/C(=C\COc1ccc2ccc(=O)oc2c1)C1=CC(=O)C(C)(C)O1	15.9 µM
Cc1cc(-c2ccc(C3C(C#N)=C(N)Oc4c3c(=O)oc3ccccc43)cc2)cnc1F (stereo not given)	> 100 µM
NC(N)=NS(=O)(=O)c1ccc(NC(=O)c2cccc3c(Nc4ccc(S(=O)(=O)N=C(N)N)cc4)c4ccccc4nc23)cc1	> 100 µM
CCCCCCCCCCCCCCCC[N+](C)(C)Cc1ccc(F)cc1	10.1 µM
NC(=O)CNC(=O)C1CC(O)CN1C(=O)OCc1ccccc1 (stereo not given) (Cbz-[ξHyp]-Gly-NH2)	> 100 µM
Brc1cccc(Nc2ncnc3sc4c(c23)CCC2(C4)OCCO2)c1	> 100 µM
Cc1ccc(/C(=C/C=C(/C#N)C(N)=O)Sc2ncnn2C)cc1	14.2 µM
CC(=O)O[C@H]1C(=O)[C@@]2(C)[C@H]([C@H](OC(=O)C3CCCCC3)[C@]3(O)C[C@H](OC(=O)[C@H](O)[C@@H](NC(=O)OC(C)(C)C)c4ccccc4)C(C)=C1C3(C)C)[C@]1(OC(C)=O)CO[C@@H]1C[C@@H]2O	> 12.5 µM
Cc1ccc(C2=C(c3ccccc3)C(=O)C(c3ccccc3)=C2c2ccc(C)cc2)cc1	> 100 µM
Nc1cc2ccccc2c(O)c1O	3.54 µM
Nc1nnnn1NC(=O)NCCCl	> 10 µM
CCCCCCCCCCCCCC(=S)N/C=C/OC	96.4 µM
CN(C)C(=S)/N=c1\ss/c(=N\C(=S)N(C)C)n1C1CCCCC1	> 100 µM
Cc1ccc(-n2c(=S)[nH]c3ccc(Br)cc3c2=O)cc1	> 100 µM
CC/C=C/c1cc2c(c3[nH]ccc13)[C@@H](C)CC2C (stereo not given in full) (tested in a mixture with another compound)	31.7 µM
COc1cc2c3c(c1OC)-c1ccccc1C(C(O)c1ccccc1)C3N(C)CC2 (stereo not given)	> 100 µM
O=Cc1cn(CCCCCn2cc(C=O)c3ccccc32)c2ccccc12	> 100 µM
COc1ccc(CNC(=O)[C@H](Cc2ccc(O)cn2)NC(C)=O)cc1OC	> 100 µM
CS(=O)(=O)c1ccc(NNc2cc(=O)[nH]c(=O)[nH]2)cc1	> 100 µM
NC1CC(=O)c2ccccc21 (stereo not given)	> 100 µM
NC(=O)c1ccc(NCC2=CC(=O)C=CC2=O)cc1	31.6 µM
O=c1[nH]c2ccccc2c(O)c1/C=N/C(=S)NCCc1ccccc1	> 100 µM
COC(=O)C(C)(C)NC(=O)C(Cc1ccccc1)Nc1ncnc2c1ncn2-c1ccc(OC)cc1 (stereo not given)	> 100 µM
Cc1ccc(-c2cc(=S)n(-c3ccccc3)c3nc(=S)n(-c4ccccc4)c(N)c23)cc1	> 100 µM
CC12C=C[C@]3(CC[C@@H]4[C@@](C)(CO)CCC[C@]4(C)C3CC1)C2 (stereo not given in full)	32 µM
Cc1n(Cc2ccc3ccccc3c2)c2ccccc2[n+]1Cc1ccc2ccccc2c1	6.49 µM
COc1ccc(NC=O)c(C(=O)CCNC(C)=O)c1	> 100 µM
Nc1ncnc2c1ncn2C1OC(CO)C2OC21 (stereo not given)	> 100 µM
CCNC(=O)OCC1C2=C(C(=O)C(C)=C(N)C2=O)N2CC3C(N3C)C12OC (stereo not given)	> 61.9 µM
Oc1ccc(Cl)cc1-c1cc(-c2ccc(Cl)cc2)n[nH]1	9.23 µM
COc1ccc(N2C(=O)C3c4[nH]c5c(C)cccc5c4C4CCC(c5ccccc5)CC4C3C2=O)cc1 (stereo not given)	43.5 µM
OC(Cc1ccc2ccccc2n1)(C(F)(F)F)C(F)(F)F	> 10 µM
CN1CCN(Cc2ccc(NC(=O)c3cncc(C#Cc4cnc5ccc(Cl)nn45)c3)cc2C(F)(F)F)CC1	2.94 µM
